- System: PRMT5 (Homo sapiens, UniProt O14744)
- Construct: purchased Viva (custom protein)
- Sequence (O14744 whole entry): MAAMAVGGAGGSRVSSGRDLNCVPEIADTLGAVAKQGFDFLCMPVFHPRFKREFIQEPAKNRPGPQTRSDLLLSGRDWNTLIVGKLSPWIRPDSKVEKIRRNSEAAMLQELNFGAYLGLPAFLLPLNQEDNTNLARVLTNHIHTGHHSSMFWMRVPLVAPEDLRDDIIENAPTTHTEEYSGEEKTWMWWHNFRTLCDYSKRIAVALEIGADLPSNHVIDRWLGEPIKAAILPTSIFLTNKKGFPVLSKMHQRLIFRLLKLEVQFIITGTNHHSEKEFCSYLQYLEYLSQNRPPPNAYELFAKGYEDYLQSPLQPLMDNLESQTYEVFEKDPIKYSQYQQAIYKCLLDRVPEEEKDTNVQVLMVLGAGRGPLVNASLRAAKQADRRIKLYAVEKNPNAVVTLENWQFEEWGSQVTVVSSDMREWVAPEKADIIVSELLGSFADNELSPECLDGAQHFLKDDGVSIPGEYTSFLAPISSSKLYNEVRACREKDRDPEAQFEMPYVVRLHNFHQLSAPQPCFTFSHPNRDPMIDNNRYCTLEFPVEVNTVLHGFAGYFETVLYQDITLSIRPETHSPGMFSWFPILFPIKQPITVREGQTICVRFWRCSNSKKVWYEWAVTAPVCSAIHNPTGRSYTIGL
- Sequence (Q9BQA1 whole entry partner): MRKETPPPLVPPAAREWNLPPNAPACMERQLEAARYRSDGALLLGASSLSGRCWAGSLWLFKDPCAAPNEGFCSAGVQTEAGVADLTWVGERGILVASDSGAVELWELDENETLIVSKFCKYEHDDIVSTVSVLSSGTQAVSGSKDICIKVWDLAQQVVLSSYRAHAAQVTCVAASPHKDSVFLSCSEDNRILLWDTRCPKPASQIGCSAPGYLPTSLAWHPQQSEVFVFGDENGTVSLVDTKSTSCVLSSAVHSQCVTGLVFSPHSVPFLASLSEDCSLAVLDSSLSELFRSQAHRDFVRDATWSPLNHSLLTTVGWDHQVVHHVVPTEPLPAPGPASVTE
- Test Details: PRMT5 biochemical IC50 assay with MTA as cofactor
- Setup Conditions: PRMT5, MTA as cofactor; read-out: MTA IC50
pIC50: −log10 of the molar value.
Below, each of the molecules is paired with its reported pIC50 value.

Example cases with answers are listed next.
>>> result("Cc1cc(NC(=O)C(=O)N2C[C@H](C)CC[C@H]2c2cnn(-c3ccn[nH]3)c2)cnc1N (racemic)")
"6.30 to 7.30"
>>> result("CNC(=O)c1ccc([C@H]2CC[C@H](C)CN2C(=O)C(=O)Nc2cncc(C)c2)cc1 (racemic)")
"6.30 to 7.30"
>>> result("CCc1cc(NC(=O)C(=O)N2C[C@H](C)CC[C@H]2c2cc(Cl)cc(Cl)c2)cnc1N (single isomer, unassigned)")
"6.30 to 7.30"
>>> result("COc1ncc(NC(=O)C(=O)N2C[C@H](C)CC[C@@H]2C2CCCCC2)cc1C(N)=O (single isomer, unassigned)")
"6.30 to 7.30"
>>> result("Cc1cc([C@H]2CC[C@H](C)CN2C(=O)C(=O)Nc2cncc(C(N)=O)c2)ccc1F (single isomer, unassigned)")
"> 7.30"

# evaluate next
*Q* pIC50 for CCc1cc(NC(=O)C(=O)N2C[C@@H](C)CC[C@@H]2c2ccc(N3CC[C@H]4CCN(C)C[C@H]4C3)cc2)cnc1N (single isomer, unassigned) ?
*A* > 7.30

Each recorded value in this set is attributed to patent US11999727B2.
